- tested-target: human GPR120 (Homo sapiens, UniProt Q5NUL3)
- Construct: expressed in transfected cells; host or cells: CHO-k1
- Sequence (Q5NUL3 whole entry): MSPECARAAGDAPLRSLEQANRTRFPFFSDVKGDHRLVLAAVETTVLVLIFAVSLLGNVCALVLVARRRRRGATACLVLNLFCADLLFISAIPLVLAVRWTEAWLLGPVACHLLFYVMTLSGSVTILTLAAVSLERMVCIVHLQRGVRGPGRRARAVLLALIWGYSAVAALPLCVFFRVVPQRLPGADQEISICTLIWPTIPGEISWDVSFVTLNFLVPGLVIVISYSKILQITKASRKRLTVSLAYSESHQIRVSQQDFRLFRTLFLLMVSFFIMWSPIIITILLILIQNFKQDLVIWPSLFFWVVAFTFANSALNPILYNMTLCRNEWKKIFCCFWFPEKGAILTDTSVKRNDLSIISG
- method-summary: In vitro Ca2+ mobilization, CHO-k1 cells stably expressing human GPR120
- Assay type: cell-based
- details: intracellular calcium, CHO-k1 cells expressing human GPR120; read-out: Ca2+ hGPR120 AC50
# log10 of AC50 per entry
Hi team, quick reminder: these entries are log10 of AC50 (µM).

// known answers, use as guide
compound: Cc1cc(Cl)cc(C)c1NS(=O)(=O)c1cccc(CCCCCCC(=O)O)c1
measured: 0.64
//
compound: O=C(O)CCCCCCc1cccc(S(=O)(=O)Nc2csnc2-c2ccccc2)c1
measured: 1.57
//
compound: Cc1cc(Br)cc(C)c1NS(=O)(=O)c1cccc(CCCCCCC(=O)O)c1
measured: 0.76

Problem: Quick one: log10 of AC50 for Cc1nsc(NS(=O)(=O)c2cccc(CCCCCCC(=O)O)c2)n1 ?
Solution: 1.35

Problem: Also Cc1noc(C)c1NS(=O)(=O)c1cccc(CCCCCCC(=O)O)c1 , if possible.
Solution: 1.25

Problem: Also Cc1cc(OCCCS(C)(=O)=O)cc(C)c1NS(=O)(=O)c1cccc(CCCCCCC(=O)O)c1 , if possible.
Solution: 0.79

Problem: Also O=C(O)CCCCCCc1cccc(S(=O)(=O)NC2=NC3CCCCC3N2)c1 (stereo not drawn) , if possible.
Solution: 1.09

Problem: Also Cc1cc(N(C)C)cc(C)c1NS(=O)(=O)c1cccc(CCCCCCC(=O)O)c1 , if possible.
Solution: 0.90

Problem: Also Cc1nc(NS(=O)(=O)c2cccc(CCCCCCC(=O)O)c2)oc1C , if possible.
Solution: 1.38

Problem: Also O=C(O)CCCCCCc1cccc(S(=O)(=O)Nc2cc(-c3ccccc3)ns2)c1 , if possible.
Solution: 1.01

Problem: Also Cc1nnc(C)n1NS(=O)(=O)c1cccc(CCCCCCC(=O)O)c1 , if possible.
Solution: 1.23

Problem: Also O=C(O)CCCCCCc1cccc(S(=O)(=O)Nc2nsc(-c3ccccc3)n2)c1 , if possible.
Solution: 1.41

Problem: Also Cc1cc(C)c(CNS(=O)(=O)c2cccc(CCCCCCC(=O)O)c2)c(C)c1 , if possible.
Solution: 0.85

Problem: Also Cc1nnc(NS(=O)(=O)c2cccc(CCCCCCC(=O)O)c2)[nH]1 , if possible.
Solution: 0.81

Problem: Also CCn1ncc(NS(=O)(=O)c2cccc(CCCCCCC(=O)O)c2)n1 , if possible.
Solution: 1.28

Problem: Also Cc1cc(C(C)C)cc(C)c1NS(=O)(=O)c1cccc(CCCCCCC(=O)O)c1 , if possible.
Solution: 0.30

Problem: Also Cc1nc(C)c(NS(=O)(=O)c2cccc(CCCCCCC(=O)O)c2)s1 , if possible.
Solution: 1.18

Problem: Also Cc1cc(-c2ccccc2)cc(C)c1NS(=O)(=O)c1cccc(CCCCCCC(=O)O)c1 , if possible.
Solution: 1.05

====

- tested-target: human GPR120 (Homo sapiens)
- Construct: expressed in transfected cells; host or cells: CHO-k1
- method-summary: In vitro Ca2+ mobilization, CHO-k1 cells stably expressing human GPR120
- Assay type: cell-based
- details: intracellular calcium, CHO-k1 cells expressing human GPR120; read-out: Ca2+ hGPR120 AC50
measurement-name: AC50

// known answers, use as guide
compound: Cc1cc(C)c(NS(=O)(=O)c2cccc(CCCCCC(=O)O)c2)c(C)c1 [Example 11]
measurement-name: AC50
measured: 6.2 µM
//
compound: Cc1cc(F)cc(-c2ccccc2)c1NS(=O)(=O)c1cccc(CCCCCCC(=O)O)c1 [Example 10]
measurement-name: AC50
measured: 16.5 µM

Problem: Short answer please: AC50, human GPR120 (Homo sapiens), entry Cc1cc(OCc2ccccc2)cc(C)c1NS(=O)(=O)c1cccc(CCCCCCC(=O)O)c1 [Example 34]
Solution: 7 µM
